Numbers sourced from BigSolDB 2.1.

- Assay setup: in transcutol, 298.15 K
Value type: solubility (mole fraction)
Number only, no unit.

Returns the measured solubility (mole fraction) for the input molecule. Input: O=C1Nc2ccccc2C1=O
0.52

====

- Assay setup: in transcutol, 303.2 K
Value type: solubility (mole fraction)
Number only, no unit.

> print(dat)
                                   compound                  value.type  assay.result
1  CC(=O)N1CCN(c2ccc(OC[C@@H]3CO[C@@](Cn4ccnc4)(c4ccc(Cl)cc4Cl)O3)cc2)CC1 (racemic)  solubility (mole fraction)        0.0159

Returns the measured solubility (mole fraction) for the input compound. Input: O=C1NC(=O)C(c2ccccc2)(c2ccccc2)N1
0.00144

====

- Assay setup: in water, 296.85 K
Value type: solubility (mole fraction)
Number only, no unit.

Returns the measured solubility (mole fraction) for the input molecule. Input: CS(=O)(=O)c1ccc([C@@H](O)[C@@H](CF)NC(=O)C(Cl)Cl)cc1
6.15e-05

====

- Assay setup: in DMAc, 293.15 K
Value type: solubility (mole fraction)

Returns the measured solubility (mole fraction) for the input compound. Input: CCC1=C(C)CN(C(=O)NCCc2ccc(S(=O)(=O)NC(=O)NC3CCC(C)CC3)cc2)C1=O (stereo unspecified)
0.017

====

- Assay setup: in n-propanol, 303.15 K
Each entry below carries its recorded solubility (mole fraction).
Number only, no unit.

Structure string	Value type	Assay result
C/C=C/C=C/C(=O)O	solubility (mole fraction)	0.0677
COc1ccc([C@@H]2CC(=O)c3c(O)cc(O[C@@H]4O[C@H](CO[C@@H]5O[C@@H](C)[C@H](O)[C@@H](O)[C@H]5O)[C@@H](O)[C@H](O)[C@H]4O)cc3O2)cc1O	solubility (mole fraction)	0.00019

Returns the measured solubility (mole fraction) for the input compound. Input: Nc1ccc(S(=O)(=O)Nc2ncccn2)cc1
5.87e-05

====

- Assay setup: in methanol, 308.15 K
Each entry below carries its recorded solubility (mole fraction).
Number only, no unit.

> print(dat)
                           structure.string  assay.result
1                                 NCCC(=O)O         0.152
2  Cc1cnc(NC(=O)C2=C(O)c3ccccc3S(=O)(=O)N2C)s1      7.04e-05

Turning now to a further record.
Returns the measured solubility (mole fraction) for the input compound. Input: CN1COCN(Cc2cnc(Cl)s2)C1=N[N+](=O)[O-]
0.00294

====

Each entry below carries its recorded solubility (mole fraction).
- Assay setup: in methanol, 303.15 K
Number only, no unit.

Check out these entries, answers already filled in.
> print(dat)
                                   compound                  value.type  assay.result
1  O=c1c(-c2ccc(O)cc2)coc2c([C@@H]3O[C@H](CO)[C@@H](O)[C@H](O)[C@H]3O)c(O)ccc12  solubility (mole fraction)       0.00787
2     CN1COCN(Cc2cnc(Cl)s2)C1=N[N+](=O)[O-]  solubility (mole fraction)       0.00225
3  CCc1ccc(CCOc2ccc(CC3SC(=O)NC3=O)cc2)nc1.Cl (stereo unspecified)  solubility (mole fraction)        0.0102
4  Cc1cnc(NC(=O)C2=C(O)c3ccccc3S(=O)(=O)N2C)s1  solubility (mole fraction)      5.88e-05
5                                 NCCC(=O)O  solubility (mole fraction)          0.14

Turning now to a further record.
Returns the measured solubility (mole fraction) for the input compound. Input: CO[C@H]1O[C@H](CO)[C@@H](O)[C@H](O)[C@H]1O
0.0128
